biological target: Delta-type opioid receptor (Homo sapiens); test: Displacement of [3H]-diprenorphine from human delta opioid receptor expressed in CHO cell membranes incubated for 1 hr by competition radioligand binding assay
Measurement Label: pKi
// pKi: -log10(molar conc.)

1. Cc1ccc(-c2cnc3c(c2)C[C@@]2(OCCCc4ccccc4)[C@H]4Cc5ccc(O)c6c5[C@@]2(CCN4CC2CC2)[C@H]3O6)cc1 : 7.46

Query block: Return the recorded pKi value; entry: COc1ccc(-c2cnc3c(c2)C[C@@]2(OCCCc4ccccc4)[C@H]4Cc5ccc(O)c6c5[C@@]2(CCN4CC2CC2)[C@H]3O6)cc1
Result block: 7.51

Query block: Return the recorded pKi value; entry: COc1cccc(-c2cnc3c(c2)C[C@@]2(OCCCc4ccccc4)[C@H]4Cc5ccc(O)c6c5[C@@]2(CCN4CC2CC2)[C@H]3O6)c1
Result block: 7.32

Query block: Return the recorded pKi value; entry: Oc1ccc2c3c1O[C@H]1c4ncc(-c5ccccc5)cc4C[C@@]4(OCCCc5ccccc5)[C@@H](C2)N(CC2CC2)CC[C@]314
Result block: 7.71

Query block: Return the recorded pKi value; entry: Cc1cccc(-c2cnc3c(c2)C[C@@]2(OCCCc4ccccc4)[C@H]4Cc5ccc(O)c6c5[C@@]2(CCN4CC2CC2)[C@H]3O6)c1
Result block: 7.57

Query block: Return the recorded pKi value; entry: Oc1ccc2c3c1O[C@H]1c4ncc(-c5ccncn5)cc4C[C@@]4(OCCCc5ccccc5)[C@@H](C2)N(CC2CC2)CC[C@]314
Result block: 7.66

Query block: Return the recorded pKi value; entry: Oc1ccc2c3c1O[C@H]1c4ncc(-c5ccccn5)cc4C[C@@]4(OCCCc5ccccc5)[C@@H](C2)N(CC2CC2)CC[C@]314
Result block: 8.19

Query block: Return the recorded pKi value; entry: Oc1ccc2c3c1O[C@H]1c4ncc(-c5ccc(Cl)cc5)cc4C[C@@]4(OCCOc5ccccc5)[C@@H](C2)N(CC2CC2)CC[C@]314
Result block: 6.76

* * *

The reader will find reported Ki values listed item by item below.
biological target: Delta-type opioid receptor (Homo sapiens, UniProt P41143); assay: Displacement of [3H]-diprenorphine from human delta opioid receptor expressed in CHO cell membranes incubated for 1 hr by competition radioligand binding assay
Sequence (P41143 whole entry): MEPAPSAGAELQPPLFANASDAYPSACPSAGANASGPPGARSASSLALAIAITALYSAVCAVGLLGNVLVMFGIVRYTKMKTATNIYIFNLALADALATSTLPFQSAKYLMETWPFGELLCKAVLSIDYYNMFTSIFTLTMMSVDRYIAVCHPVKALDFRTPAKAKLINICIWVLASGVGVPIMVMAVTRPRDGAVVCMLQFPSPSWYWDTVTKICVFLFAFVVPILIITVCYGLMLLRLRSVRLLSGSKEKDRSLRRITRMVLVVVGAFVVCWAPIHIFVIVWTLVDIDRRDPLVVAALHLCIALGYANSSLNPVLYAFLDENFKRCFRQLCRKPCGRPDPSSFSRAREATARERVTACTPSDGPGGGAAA
Kindly answer with a numeric value in nM, unit omitted.

1. Oc1ccc2c3c1O[C@H]1c4ncc(-c5cnccn5)cc4C[C@@]4(OCCCc5ccccc5)[C@@H](C2)N(CC2CC2)CC[C@]314 : 40.1

Query block: Return the recorded Ki value; entry: Oc1ccc2c3c1O[C@H]1c4ncc(-c5ccccc5)cc4C[C@@]4(OCCCc5ccc(F)cc5)[C@@H](C2)N(CC2CC2)CC[C@]314
Result block: 11

Query block: Return the recorded Ki value; entry: Oc1ccc2c3c1O[C@H]1c4ncc(-c5ccc(F)cc5)cc4C[C@@]4(OCCCc5ccccc5)[C@@H](C2)N(CC2CC2)CC[C@]314
Result block: 3.42

Query block: Return the recorded Ki value; entry: Oc1ccc2c3c1O[C@H]1c4ncc(-c5ccccc5)cc4C[C@@]4(OCCCc5ccncc5)[C@@H](C2)N(CC2CC2)CC[C@]314
Result block: 29.2

Query block: Return the recorded Ki value; entry: Oc1ccc2c3c1O[C@H]1c4ncc(-c5ccc(Cl)cc5)cc4C[C@@]4(OCCCc5ccncc5)[C@@H](C2)N(CC2CC2)CC[C@]314
Result block: 5.24

Query block: Return the recorded Ki value; entry: CN(C)c1cccc(-c2cnc3c(c2)C[C@@]2(OCCCc4ccccc4)[C@H]4Cc5ccc(O)c6c5[C@@]2(CCN4CC2CC2)[C@H]3O6)c1
Result block: 68.9

Query block: Return the recorded Ki value; entry: Oc1ccc2c3c1O[C@H]1c4ncc(-c5ccccc5)cc4C[C@@]4(OCCCC5CCOCC5)[C@@H](C2)N(CC2CC2)CC[C@]314
Result block: 64.5

Query block: Return the recorded Ki value; entry: Oc1ccc2c3c1O[C@H]1c4ncc(-c5ccc(F)cc5F)cc4C[C@@]4(OCCCc5ccccc5)[C@@H](C2)N(CC2CC2)CC[C@]314
Result block: 53.7

Query block: Return the recorded Ki value; entry: Oc1ccc2c3c1O[C@H]1c4ncc(-c5cn[nH]c5)cc4C[C@@]4(OCCCc5ccccc5)[C@@H](C2)N(CC2CC2)CC[C@]314
Result block: 257

Query block: Return the recorded Ki value; entry: Cc1nocc1-c1cnc2c(c1)C[C@@]1(OCCCc3ccccc3)[C@H]3Cc4ccc(O)c5c4[C@@]1(CCN3CC1CC1)[C@H]2O5
Result block: 64.5

Query block: Return the recorded Ki value; entry: Oc1ccc2c3c1O[C@H]1c4ncc(-c5ccc(Cl)cc5)cc4C[C@@]4(OCc5ccc6ccccc6n5)[C@@H](C2)N(CC2CC2)CC[C@]314
Result block: 32.5

Query block: Return the recorded Ki value; entry: Cc1ccccc1-c1cnc2c(c1)C[C@@]1(OCCCc3ccccc3)[C@H]3Cc4ccc(O)c5c4[C@@]1(CCN3CC1CC1)[C@H]2O5
Result block: 97.2

Query block: Return the recorded Ki value; entry: Oc1ccc2c3c1O[C@H]1c4ncc(-c5ccccc5)cc4C[C@@]4(OCCCCc5ccccc5)[C@@H](C2)N(CC2CC2)CC[C@]314
Result block: 14.6

Values compiled from ChEMBL document CHEMBL4627399.
